Data origin, for the record: PubChem BioAssay (Tox21)

Assay: qHTS assay to identify small molecule antagonists of the estrogen receptor alpha (ER-alpha) signaling pathway using the BG1 cell line (AID 743080);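 note: BG1 cells stimulated with 17beta-estradiol alongside compound; % is set by controls: 0 for no effect and ±100 for the full control effect; nearly all actives have a fitted effect of over 25% in size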
Settings: BG1Luc4E2 ERE-luciferase antagonist mode, luminescence; series mostly up to 70.3 µM
Records with an inconclusive call do not appear. Active and inactive are the calls of the source. Calls come from the whole dose curve.
Experimental readout: outcome

| Smiles representation | Experimental readout | Result |
| --- | --- | --- |
| CCCCCCCC/C=C\CCCCCCCC(=O)OCCO | outcome | inactive |
| CC(=O)c1ccc[nH]1 | outcome | inactive |
| CC1=CC[C@@H]2C[C@H]1C2(C)C | outcome | inactive |

---

Molecular target: Nuclear receptor subfamily 1 group I member 2 (Homo sapiens) (UniProt O75469)
Sequence (O75469 whole entry, looked up): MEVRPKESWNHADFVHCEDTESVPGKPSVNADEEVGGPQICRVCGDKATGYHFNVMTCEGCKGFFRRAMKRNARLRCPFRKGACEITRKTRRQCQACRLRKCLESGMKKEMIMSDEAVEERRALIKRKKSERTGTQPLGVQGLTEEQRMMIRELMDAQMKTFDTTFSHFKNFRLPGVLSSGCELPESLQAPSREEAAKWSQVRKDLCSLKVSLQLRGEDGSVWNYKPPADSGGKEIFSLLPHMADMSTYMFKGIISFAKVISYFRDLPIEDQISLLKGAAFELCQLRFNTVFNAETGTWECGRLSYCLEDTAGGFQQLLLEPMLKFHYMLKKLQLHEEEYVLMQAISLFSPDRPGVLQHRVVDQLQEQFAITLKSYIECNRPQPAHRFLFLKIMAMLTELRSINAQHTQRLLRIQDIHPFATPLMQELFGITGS
Experiment: Human pregnane X receptor (PXR) small molecule agonists, qHTS assay (AID 1346982); note: % is set by controls: 0 for no effect and ±100 for the full control effect; nearly all actives have a fitted effect of over 35% in size
Details: PXR-Luc HepG2, CYP3A4 luciferase reporter, 24 h; series mostly up to 92.4 µM
Inconclusive results are not listed. Calls of active or inactive are those of the source. Calls come from the whole dose curve; as a rule, active = well fitted activation curve with a large enough effect in the repeat runs; inconclusive = weak or mixed curves; inactive = no such curve, though single readings can be large or run the other way.
Pick one and only one: Y = active, N = inactive

Outcome logged for O=C(O)c1cccc(Oc2ccccc2)c1 in this assay:
N

Outcome logged for O=C(Nc1ccc(C(=O)O)c(O)c1)c1ccccc1 in this assay:
N

Outcome logged for COC(=O)c1sccc1S(N)(=O)=O in this assay:
N

Outcome logged for Cc1ccc2nc(N)[nH]c(=O)c2c1Sc1ccncc1 in this assay:
N

Outcome logged for COC(OC)OC in this assay:
N

Outcome logged for CCCCCCCCCCCCCCCC(=O)OCC in this assay:
N

Outcome logged for COC1CCC=CO1 (stereo unspecified) in this assay:
N

Outcome logged for CC(C)(O)CCc1ccccc1 in this assay:
N

Outcome logged for [Cl][Nd]([Cl])[Cl] in this assay:
N

---

Assay: qHTS assay to identify small molecule agonists of the peroxisome proliferator-activated receptor delta (PPARd) signaling pathway - cell viability counter screen (AID 743211); note: % is set by controls: 0 for no effect and ±100 for the full control effect; nearly all actives have a fitted effect of over 55% in size
Conditions: PPARd-bla HEK293H viability, CellTiter-Glo luminescence, 17 h; series mostly up to 62.6 µM
Source text: U.S. Tox21 Program National Center for Advancing Translational Sciences [NCATS] NIH Chemical Genomics Center [NCGC] U.S. Environmental Protection Agency [EPA] National Institutes of Environmental Health Sciences [NIEHS] National Toxicology Program [NTP] U.S. Food and Drug Administration [FDA] […]
Inconclusive results are not listed. Active and inactive are the calls of the source. Calls come from the whole dose curve; as a rule, active = well fitted cell-killing curve with a large enough effect in the repeat runs; inconclusive = weak or mixed curves; inactive = no such curve, though single readings can be large or run the other way.
Pick one and only one: true (1) = active, false (0) = inactive

| Compound | Category |
| --- | --- |
| CCCCCCCC/C=C\CCCCCCCC(=O)OCCO | false (0) |

In the following, a different compound is considered.
Outcome logged for CC(C(=O)O)c1ccc(C(=O)c2cccs2)cc1 (configuration not stated) in this assay:
false (0)

---

Test: qHTS assay to identify small molecule agonists of the farnesoid-X-receptor (FXR) signaling pathway - cell viability counter screen (AID 743218); note: nearly all actives have a fitted effect of over 45% in size
Conditions: FXR-bla HEK293T viability, CellTiter-Glo luminescence, 16 h; series mostly up to 62.6 µM
Results filed as inconclusive are left out. Activity calls are given as the source filed them. Calls follow the shape of the dose curve; as a rule, active = well fitted cell-killing curve with a large enough effect in the repeat runs; inconclusive = weak or mixed curves, or effect the other way; inactive = no such curve, though single readings can be large or run the other way.
Pick one and only one: active, inactive

Reference set, count: 6
| Compound | Category |
| --- | --- |
| O=C(O)c1cccc(C[C@@H]2COc3ccc(OCc4nc5cc(F)ccc5s4)cc3[C@@H]2O)c1 | inactive |
| Cc1cc(CCC(=O)OCCOCCOCCOC(=O)CCc2cc(C)c(O)c(C(C)(C)C)c2)cc(C(C)(C)C)c1O | inactive |
| CCCCCCC(O)CCOC(C)=O (centres undefined) | inactive |
| CO[C@@H]1[C@@H](OC)[C@H](C)[C@@](O)(CC(=O)O)O[C@H]1[C@H](C)[C@H]1O[C@@]2(CC[C@@](C)([C@H]3CC[C@@](C)([C@@H]4O[C@@H]([C@H]5O[C@](C)(O)[C@H](C)C[C@@H]5C)C[C@@H]4OC4C[C@H](OC)[C@@H](OC)[C@H](C)O4)O3)O2)C[C@H](O)[C@H]1C (some centres undefined) | active |
| C1CCCCC1 | inactive |
| CC(C)(O)c1coc(S(=O)(=O)NC(=O)Nc2c3c(cc4c2CCC4)CCC3)c1 | inactive |

In the following, a different compound is considered.
Outcome logged for CC(=O)NNC(C)=O in this assay:
inactive

---

Target: Luciferin 4-monooxygenase (Photinus pyralis) (UniProt P08659)
Sequence (P08659 whole entry, looked up): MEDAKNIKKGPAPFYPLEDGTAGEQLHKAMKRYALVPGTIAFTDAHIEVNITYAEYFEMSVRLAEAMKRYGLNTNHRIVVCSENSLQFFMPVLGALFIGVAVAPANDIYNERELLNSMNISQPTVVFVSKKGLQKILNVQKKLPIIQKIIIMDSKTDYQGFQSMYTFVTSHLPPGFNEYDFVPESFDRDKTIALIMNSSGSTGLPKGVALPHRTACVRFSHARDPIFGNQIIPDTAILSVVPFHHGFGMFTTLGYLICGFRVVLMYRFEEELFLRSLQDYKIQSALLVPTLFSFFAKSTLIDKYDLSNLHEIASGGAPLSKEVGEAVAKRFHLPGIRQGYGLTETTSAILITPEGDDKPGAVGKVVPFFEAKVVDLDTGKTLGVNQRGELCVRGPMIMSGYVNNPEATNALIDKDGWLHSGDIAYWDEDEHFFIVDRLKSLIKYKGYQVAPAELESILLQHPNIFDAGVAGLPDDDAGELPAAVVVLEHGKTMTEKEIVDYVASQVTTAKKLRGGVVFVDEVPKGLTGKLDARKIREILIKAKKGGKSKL
Assay: qHTS assay to identify small molecule inhibitors of firefly luciferase (AID 1224835); note: nearly all actives have a fitted effect of over 25% in size
Conditions: purified P. pyralis luciferase, luminescence inhibition; series mostly up to 115 µM
Results filed as inconclusive are left out. Activity calls are given as the source filed them. Calls come from the whole dose curve; as a rule, active = well fitted inhibition curve with a large enough effect in the repeat runs; inconclusive = weak or mixed curves; inactive = flat fitted curve, though single readings scatter.
Pick one and only one: active, inactive

| Compound | Measured on | Category |
| --- | --- | --- |
| CCOc1ncc(F)c(=O)[nH]1 | Luciferin 4-monooxygenase (Photinus pyralis) (UniProt P08659) | inactive |
| COC(=O)Nc1nc2ccc(C(=O)C3CC3)cc2[nH]1 | Luciferin 4-monooxygenase (Photinus pyralis) (UniProt P08659) | active |

Outcome logged for CCCCCCCCCCCCCCCC(=O)OCC in this assay:
inactive

Outcome logged for CC[C@H]1OC(=O)[C@H](C)[C@@H](O[C@H]2C[C@@](C)(OC)[C@@H](O)[C@H](C)O2)[C@H](C)[C@@H](O[C@@H]2O[C@H](C)C[C@H](N(C)C)[C@H]2O)[C@](C)(O)C[C@@H](C)CN(C)[C@H](C)[C@@H](O)[C@]1(C)O in this assay:
inactive

---

Assay: qHTS RealTime-Glo MT Cell Viability Assay in HEK293 cells - 40 hour (AID 1224874); note: % is set by controls: 0 for no effect and ±100 for the full control effect; nearly all actives have a fitted effect of over 50% in size
Settings: RealTime-Glo luminescence; stronger effect = lower value
Inconclusive results are not listed.
Listed below: max response values for each entry.
Kindly provide the numeric value in % only, without the unit symbol.

Recorded results for 3 compounds are shown here.
| Compound | max response / % |
| --- | --- |
| CCCCCCCCCCCCCC(=O)OCC(O)CO (stereo not drawn) | -0.733 |
| CC(=O)OCCC1CCCCC1 | 6.39 |
| CCOC(=O)C(C)O (stereo not drawn) | 15.3 |

Any idea what max response was measured for BrC(Br)C(Br)Br ?
-12.1

Any idea what max response was measured for CNC1CCCN(c2c(F)cc3c(=O)c(C(=O)O)cn(C4CC4)c3c2OC)C1 (stereo not drawn) ?
-1.56

Any idea what max response was measured for C=Cc1ccc(OC(C)=O)cc1 ?
18.3

---

Biological target: Estrogen receptor (Homo sapiens)
Assay: qHTS assay to identify small molecule agonists of the estrogen receptor alpha (ER-alpha) signaling pathway using the BG1 cell line (AID 743079); note: nearly all actives have a fitted effect of over 20% in size; for activation: % is set by controls: 0 for no effect and ±100 for the full control effect
Settings: BG1Luc4E2 cells, ERE-luciferase agonist, 22 h; series mostly up to 70.3 µM
Results filed as inconclusive are left out. Activity calls are given as the source filed them. The call rests on the fitted dose curve; in most records, active means well fitted activation curve with a large enough effect in the repeat runs; inconclusive means weak or mixed curves, or effect the other way; inactive means no such curve, though single readings can be large or run the other way.
Pick one and only one: active, inactive

| Compound | Category |
| --- | --- |
| O=[N+]([O-])c1ccc2ncccc2c1 | inactive |

Outcome logged for Nc1nc2ccc(OC(F)(F)F)cc2s1 in this assay:
active

Outcome logged for O=C(O)c1cccc(C[C@@H]2COc3ccc(OCc4nc5cc(F)ccc5s4)cc3[C@@H]2O)c1 in this assay:
inactive

---

Experiment: qHTS assay for small molecule activators of the heat shock response signaling pathway - cell viability counter screen (AID 743209); note: % is set by controls: 0 for no effect and ±100 for the full control effect; nearly all actives have a fitted effect of over 50% in size
Details: HSE-bla HeLa viability, CellTiter-Glo luminescence, 5 h; series mostly up to 62.6 µM
Results filed as inconclusive are left out. Calls of active or inactive are those of the source. The call rests on the fitted dose curve; in most records, active means well fitted cell-killing curve with a large enough effect in the repeat runs; inconclusive means weak or mixed curves, or effect the other way; inactive means no such curve, though single readings can be large or run the other way.
Pick one and only one: true = active, false = inactive

| Compound | Category |
| --- | --- |
| O=C(O)CCC(=O)OC[C@@H](NC(=O)C(Cl)Cl)[C@H](O)c1ccc([N+](=O)[O-])cc1 | false |

Outcome logged for CNC1CCCN(c2c(F)cc3c(=O)c(C(=O)O)cn(C4CC4)c3c2OC)C1 (centres undefined) in this assay:
false

---

Assay: A CellTox Green Cytotoxicity Assay to monitor cytotoxicity in HEK293 cells - 40 hour (AID 1224871); note: nearly all actives have a fitted effect of over 45% in size
Settings: CellTox Green fluorescence; series mostly up to 76.8 µM
Excerpt: National Center for Advancing Translational Sciences [NCATS] NIH Chemical Genomics Center [NCGC] U.S. Environmental Protection Agency [EPA] National Institutes of Environmental Health Sciences [NIEHS] National Toxicology Program [NTP] Cell-based models are critical for drug discovery. […] Viable cells produce no appreciable increases in fluorescence. Therefore, the fluorescence signal produced by the binding interaction with dead cell DNA is proportional to cytotoxicity. […]
Inconclusive results are not listed. The source made the active and inactive calls. Calls come from the whole dose curve; as a rule, active = well fitted activation curve with a large enough effect in the repeat runs; inconclusive = weak or mixed curves; inactive = flat fitted curve, though single readings scatter.
Pick one and only one: active, inactive

Reference set, count: 5
| Molecule | Category |
| --- | --- |
| O=C(Nc1ccc(C(=O)O)c(O)c1)c1ccccc1 | inactive |
| Nc1nc(-c2ccc([N+](=O)[O-])cc2)cs1 | inactive |
| CN1C(CSCC(F)(F)F)Nc2cc(Cl)c(S(N)(=O)=O)cc2S1(=O)=O (centres undefined) | inactive |
| CC[C@@H](CO)NCCN[C@@H](CC)CO | inactive |
| CNC1CCCN(c2c(F)cc3c(=O)c(C(=O)O)cn(C4CC4)c3c2OC)C1 (centres undefined) | inactive |

Outcome logged for CCO[Si](C)(CCCOCC1CO1)OCC (centres undefined) in this assay:
inactive

Outcome logged for Cc1ccc2nc(N)[nH]c(=O)c2c1Sc1ccncc1 in this assay:
inactive

Outcome logged for O=C(c1ccccc1)c1ccc(O)cc1 in this assay:
inactive

Outcome logged for CC1CCC(C(C)CS)CC1S (centres undefined) in this assay:
active

Outcome logged for O=C(c1ccccc1)C1CCC1 in this assay:
active

Outcome logged for COc1ccc(C(=O)NCc2ccc(OCCN(C)C)cc2)cc1OC in this assay:
inactive

Outcome logged for Nc1cccc2c(N)cccc12 in this assay:
inactive

Outcome logged for CNCc1ccc(NC(=O)c2c[nH]c3c2C(=O)CCC3)cc1 in this assay:
inactive

Outcome logged for CC(C)C(=O)OCCOc1ccccc1 in this assay:
inactive

Outcome logged for FC(F)(F)C(F)(F)C(F)(F)C(F)(F)CCI in this assay:
inactive

Outcome logged for CCCCCCCC/C=C\CCCCCCCC(=O)OCCO in this assay:
inactive
